The measured values listed here are drawn from patent US20230096663A1.

Parameter concentration at 4 h: see the listing below.
# procedureText: Compound exposure in plasma and liver of HFHC fed male mice
# Type: in vivo
# measurementSetup: C57BL/6J, mouse, plasma, oral, 10 mg/kg, 10 mg/kg QD oral, 4 hours after last dose on day 28, read-out: Mean compound exposure, Plasma
Please give the number followed by its unit.

                            smilesstructure  observedvalue
0  Cc1cc(S(=O)[O-])cc2sc(N3[C@@H]4CC[C@H]3C[C@@H](OCc3c(-c5ccccc5OC(F)(F)F)noc3C3CC3)C4)nc12.[Na+]      5.9 ng/mL

Briefly, concentration at 4 h measured for O=S([O-])c1cc(F)c2nc(N3[C@@H]4CC[C@H]3C[C@@H](OCc3c(-c5ccccc5OC(F)(F)F)noc3C3CC3)C4)sc2c1.[Na+] : 1.2 ng/mL

---

# targetDesc: Human FXR receptor (NR1H4) (Homo sapiens)
# Sequence (Q96RI1 1-486): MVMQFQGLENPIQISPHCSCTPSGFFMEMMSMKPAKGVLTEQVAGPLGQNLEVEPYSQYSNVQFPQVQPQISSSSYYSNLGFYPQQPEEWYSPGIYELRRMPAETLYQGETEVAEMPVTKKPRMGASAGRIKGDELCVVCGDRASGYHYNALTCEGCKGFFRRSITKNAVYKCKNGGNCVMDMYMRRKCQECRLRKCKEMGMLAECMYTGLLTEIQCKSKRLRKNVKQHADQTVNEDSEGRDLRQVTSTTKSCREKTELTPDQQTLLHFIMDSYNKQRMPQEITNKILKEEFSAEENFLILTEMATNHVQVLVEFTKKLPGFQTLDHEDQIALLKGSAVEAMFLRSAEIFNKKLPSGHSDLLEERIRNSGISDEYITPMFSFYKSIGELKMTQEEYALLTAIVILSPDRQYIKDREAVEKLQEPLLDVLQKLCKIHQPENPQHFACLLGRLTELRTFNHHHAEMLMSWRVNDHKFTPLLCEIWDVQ
# procedureText: Human Farnesoid X Receptor (NR1H4, FXR) reporter assay
# measurementSetup: Human FXR (NR1H4) luciferase reporter assay, 22-24 h
parameter: pEC50
To interpret pEC50, take it as minus log10 of a concentration measured in moles per litre.

Briefly, pEC50 measured for O=S([O-])c1cc(F)c2nc(N3[C@@H]4CC[C@H]3C[C@@H](OCc3c(-c5ccccc5OC(F)(F)F)noc3C3CC3)C4)sc2c1.[Na+] : 6.34

---

# procedureText: Compound exposure in plasma and liver of HFHC fed male mice
# Type: in vivo
# measurementSetup: C57BL/6J, mouse, liver/plasma, oral, 3 mg/kg, 3 mg/kg BID oral, 4 hours after last dose on day 28, read-out: Ratio (liver to plasma exposure)
parameter: Kp at 4 h
Number only, please.

Briefly, Kp at 4 h measured for O=S([O-])c1cc(F)c2nc(N3[C@@H]4CC[C@H]3C[C@@H](OCc3c(-c5ccccc5OC(F)(F)F)noc3C3CC3)C4)sc2c1.[Na+] : 54.8

---

# procedureText: Compound exposure in plasma and liver of HFHC fed male mice
# Assay type: in vivo
# measurementSetup: C57BL/6J, mouse, liver/plasma, oral, 10 mg/kg, 10 mg/kg BID oral, 4 hours after last dose on day 28, read-out: Ratio (liver to plasma exposure)
parameter: Kp at 4 h
Number only, please.

Briefly, Kp at 4 h measured for O=S([O-])c1cc(F)c2nc(N3[C@@H]4CC[C@H]3C[C@@H](OCc3c(-c5ccccc5OC(F)(F)F)noc3C3CC3)C4)sc2c1.[Na+] [Example 2] : 65.9

---

# procedureText: Compound exposure in plasma and liver of HFHC fed male mice
# Format: in vivo
# measurementSetup: C57BL/6J, mouse, liver, oral, 10 mg/kg, 10 mg/kg BID oral, 4 hours after last dose on day 28, read-out: Mean compound exposure, Liver
parameter: concentration at 4 h

>>> df
                            smilesstructure             parameter  observedvalue
0  O=S([O-])c1cc(F)c2nc(N3[C@@H]4CC[C@H]3C[C@@H](OCc3c(-c5ccccc5OC(F)(F)F)noc3C3CC3)C4)sc2c1.[Na+]  concentration at 4 h       138 ng/g

Consider the additional molecule presented here.
Briefly, concentration at 4 h measured for Cc1cc(S(=O)[O-])cc2sc(N3[C@@H]4CC[C@H]3C[C@@H](OCc3c(-c5ccccc5OC(F)(F)F)noc3C3CC3)C4)nc12.[Na+] : 198 ng/g

---

# procedureText: Compound exposure in plasma and liver of HFHC fed male mice
# Type: in vivo
# measurementSetup: C57BL/6J, mouse, liver, oral, 3 mg/kg, 3 mg/kg BID oral, 4 hours after last dose on day 28, read-out: Mean compound exposure, Liver
Parameter concentration at 4 h: see the listing below.
Give a bare numeral; the unit ng/g is implied.

Briefly, concentration at 4 h measured for O=S([O-])c1cc(F)c2nc(N3[C@@H]4CC[C@H]3C[C@@H](OCc3c(-c5ccccc5OC(F)(F)F)noc3C3CC3)C4)sc2c1.[Na+] : 54.8

Briefly, concentration at 4 h measured for Cc1cc(S(=O)[O-])cc2sc(N3[C@@H]4CC[C@H]3C[C@@H](OCc3c(-c5ccccc5OC(F)(F)F)noc3C3CC3)C4)nc12.[Na+] : 88.9
